Entries and their cytotoxicity at 10 µM
Test: Toxicity liver stage against HepG2, at 10uM
Type: cell-based
Parameters: test concentration 10 uM, cell line HepG2-A16-CD81EGFP
Conditions: human, HepG2-A16-CD81EGFP cells; read-out: INHIBITION
observed property: cytotoxicity at 10 µM

>>> observed_value("COC1CCN(C(=O)Nc2ccccc2)CC(=O)N(C)c2ccccc21 (stereo unspecified)")
"2.94%"
>>> observed_value("CN(C)C(=O)CCCNC(=O)C(c1cccc(F)c1)N(C)C (stereo unspecified)")
"-25.3%"
>>> observed_value("CC(C)c1cc(C(=O)N2CCNCC2C(=O)NCc2ccncc2)on1 (stereo unspecified)")
"-7.6%"
>>> observed_value("CCn1cc2c(n1)C(COCC1CC1)CN(C(=O)c1cc(C)on1)C2 (stereo unspecified)")
"17.8%"
>>> observed_value("Cc1cnn(CC2CCCCN2Cc2nnsc2Cl)c1 (stereo unspecified)")
"-2.93%"
>>> observed_value("OC(COc1ccccc1)CN1CCc2c(ncn2C2CC2)C1 (stereo unspecified)")
"2.48%"

====

Assay: Toxicity liver stage against HepG2, at 10uM
Assay type: cell-based
Design: test concentration 10 uM, cell line HepG2-A16-CD81EGFP
Conditions: human, HepG2-A16-CD81EGFP cells; read-out: INHIBITION
observed property: cytotoxicity at 10 µM (%)

>>> observed_value("Cn1c(=O)n(C)c2cc(C3SCC(=O)Nc4ccsc43)ccc21 (configuration not stated)")
4.49
>>> observed_value("COCc1nnn2c1CN(C(=O)c1ccnnc1)CCC2")
-0.461
>>> observed_value("Cc1nc(CN(C)C2CCN(Cc3ccc4c(c3)OCCO4)C2)no1 (configuration not stated)")
-4.79
>>> observed_value("Cn1ncc(N2CCC(CNC3Cc4ccccc4C3)C2)cc1=O (configuration not stated)")
-6
>>> observed_value("COC(=O)[C@@H]1Cc2ncn(C(C)C)c2CN1S(=O)(=O)Cc1ccccc1")
-2.51
>>> observed_value("O=C(N1CCCC1)N1CC[C@H]2[C@H]1CCN2c1ncccn1")
-1.19
>>> observed_value("CCN(Cc1cc(F)c(OC)c(Cl)c1)Cc1nc(COC)no1")
3.98
>>> observed_value("CCOCC(=O)N(C)Cc1nc(C(F)(F)F)cs1")
2.49
>>> observed_value("COCC(=O)N1CCCC1c1csc(Nc2cnccn2)n1 (configuration not stated)")
-8.11
>>> observed_value("O=C1CN(CCCNC(=O)Nc2ccccn2)CCN1")
-10.1
>>> observed_value("CCOc1ccc(NC(=O)c2oc(CC)cc2C)cc1CO")
2.05
>>> observed_value("O=C(NC1(C(=O)NC2CCCC2)CCCC1)c1ccc2[nH]ncc2c1")
4.73

====

# cytotoxicity at 10 µM listing for each entry below
Experiment: Toxicity liver stage against HepG2, at 10uM
Format: cell-based
Set-up: test concentration 10 uM, cell line HepG2-A16-CD81EGFP
Conditions: human, HepG2-A16-CD81EGFP cells; read-out: INHIBITION
observed property: cytotoxicity at 10 µM (%)

>>> observed_value("Cc1cnn(CCC(=O)Nc2ccc(F)cc2OCC2CC2)c1")
-4.11
>>> observed_value("CCCOc1ccc(CNC2CCCc3c2cnn3CC)cc1OC (centres undefined)")
-10.8
>>> observed_value("c1ccn(Cc2nnc3n2CCCN(c2cnccn2)C3)c1")
-2.2
>>> observed_value("CC[C@H]1CN(C(=O)c2cnc(N3CCN(C)CC3)nc2C)CC[C@@]1(C)O")
-4.15
>>> observed_value("CN(C)c1cc(CNC(=O)c2ccccc2S(C)(=O)=O)ccn1")
-10.7
>>> observed_value("CNC(=O)N1CCC2(CC1)CC[C@@]1(C(=O)NC)CN(S(C)(=O)=O)C[C@@H]21")
-3.91
>>> observed_value("CCOCCN1CCN(Cc2nnc(C3CC3)o2)CC1")
1.95
>>> observed_value("COc1ccc(CN(Cc2cncn2C)CC2CCCO2)cc1 (centres undefined)")
-4.47
>>> observed_value("Cc1nc(NC(=O)CN2C(=O)c3ccccc3NC2C(C)C)sc1C (centres undefined)")
0.585
>>> observed_value("c1cc2c(cc1-c1noc3c1CN(C1CCC1)CC3)OCO2")
-18.4
>>> observed_value("O=C(Cc1cnn(-c2ccccc2)n1)NC1CCOCC1")
-9.72
>>> observed_value("Cc1ccnc(NCC2(N(C)C)CCOCC2)n1")
3.81
>>> observed_value("CCc1nc(-c2cncnc2C2CCNC2)no1 (centres undefined)")
1.45
>>> observed_value("Cc1cc(CC(C)Nc2nc(C3CCCC3)nc3c2cnn3C)[nH]n1 (centres undefined)")
-6.12
>>> observed_value("CC(C)c1ncc2c(n1)CN(Cc1ccc3c(c1)OCCO3)CC2")
-0.996
>>> observed_value("CCc1cc(N[C@H]2CCC[C@H]2O)n2nccc2n1")
-4
>>> observed_value("Cc1cnn(C2CCCN(C(=O)c3cc(C4CC4)on3)C2)c1 (centres undefined)")
-11.4
>>> observed_value("Cn1cc(N2CCC3(CCN(Cc4cccnc4)C3)C2=O)cn1 (centres undefined)")
3.63
>>> observed_value("CSCCC(NC(N)=O)C(=O)NCc1c(C)nn(-c2ccccc2)c1C (centres undefined)")
8.15
>>> observed_value("Cc1ccc(C)n1-c1ccc(C(=O)NCCNc2ncccn2)cc1")
-1.25
>>> observed_value("CCc1n[nH]c(C2CN(CCc3ccncc3)CCO2)n1 (centres undefined)")
2.17
>>> observed_value("COC(=O)NCC(=O)N1CCCC1c1nc(-c2ccccc2F)c[nH]1 (centres undefined)")
8.01
>>> observed_value("CCCc1noc(CCC(=O)NC(C)c2nnc3n2CCCCC3)n1 (centres undefined)")
4.05
>>> observed_value("O=C(C1CC1)N1C[C@@H](F)[C@@H](OCc2nc3cc(F)ccc3[nH]2)C1")
-6.92
